src = paper PMC3218832

Target: p52p52 homodimer (Homo sapiens, UniProt Q00653 4-332)
Sequence: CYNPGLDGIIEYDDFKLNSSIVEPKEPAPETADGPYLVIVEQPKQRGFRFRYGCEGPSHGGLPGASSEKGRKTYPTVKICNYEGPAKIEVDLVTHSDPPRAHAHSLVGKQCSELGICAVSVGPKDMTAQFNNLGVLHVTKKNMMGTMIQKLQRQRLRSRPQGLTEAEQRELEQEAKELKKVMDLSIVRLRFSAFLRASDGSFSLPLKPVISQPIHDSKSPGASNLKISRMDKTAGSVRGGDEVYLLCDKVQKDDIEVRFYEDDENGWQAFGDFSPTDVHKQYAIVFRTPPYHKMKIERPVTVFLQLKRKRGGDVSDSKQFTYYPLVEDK
Assay: protein binding microarray; high values mean tight binding
Settings: dsDNA, one strand shown
I'd be grateful if you could share measured binding signal for these entries.

[
  {
    "SEQUENCE": "CGAAGACTCCC",
    "binding signal": "-0.407 z-score"
  },
  {
    "SEQUENCE": "AGGAATGCCCT",
    "binding signal": "-0.376 z-score"
  },
  {
    "SEQUENCE": "AGGAAGCCCCC",
    "binding signal": "1.3 z-score"
  },
  {
    "SEQUENCE": "AGAATTGTCCC",
    "binding signal": "0.873 z-score"
  },
  {
    "SEQUENCE": "GGGTAAGTCCT",
    "binding signal": "1.41 z-score"
  },
  {
    "SEQUENCE": "GGATTGTTCCC",
    "binding signal": "-0.233 z-score"
  }
]

Answer for every listed entry: what is its binding signal? The entries follow.
1. GAGGGCTCCCC
2. GAAAGTGTCCT
3. GAGATTACCCT

["-0.0309 z-score", "-0.464 z-score", "0.46 z-score"]
